System: A549
Test: A549 assay: screening of cancer cell growth inhibiting compound
Assay type: cell-based
Conditions: Homo sapiens, 72 h; A549 cells, three days, WST-8; read-out: A549 IC50
pIC50: −log10 of the molar value.
measuredQuantity: pIC50

Worked examples, 5 molecules total:
molecule=CCN(c1cc(NCC2CCOCC2)c2ncc(-c3ccc(C(=O)NC4CC4)cc3)n2n1)C1CCCC1 testvalue="6.30 to 7.30"
molecule=O=C(NC1CC1)c1ccc(-c2cnc3c(NCC4CCOCC4)nc(-c4ccsc4)cn23)cc1 testvalue="6.30 to 7.30"
molecule=COCCNC(=O)c1cccc(-c2cn3c(-c4ccc(C(=O)NC5CC5)cc4)cnc3c(NCC(C)C)n2)c1 testvalue="6.30 to 7.30"
molecule=O=C(NC1CC1)c1ccc(-c2cnc3c(NCCSCCO)cc(NC4CCCCC4)nn23)cc1 testvalue="6.30 to 7.30"
molecule=Nc1ccccc1Oc1cc(NCC2CCOCC2)c2ncc(-c3ccc(C(=O)NC4CC4)cc3)n2n1 testvalue="≥ 7.30"

Task item: Can you share its pIC50? I mean this molecule: "O=C(NC1CC1)c1ccc(-c2cnc3c(NCC4CCOCC4)cc(Oc4cccc(O)c4)nn23)cc1"
Reply: 6.30 to 7.30

Task item: Then "CC(C)CNc1nc(-c2ccc(O)c(Cl)c2)cn2c(-c3ccc(C(=O)NC4CC4)cc3)cnc12" ?
Reply: 5.00 to 6.00

Task item: Also "CC(=O)N1CCC(CNc2nc(-c3ccc(C#N)cc3)cn3c(-c4ccc(C(=O)NC5CC5)cc4)cnc23)CC1" ?
Reply: 6.00 to 6.30

Task item: Follow-up entry: "O=C(NC1CC1)c1ccc(-c2cnc3c(NCC4CCOCC4)cc(NC4CCC(F)(F)CC4)nn23)cc1"
Reply: 6.30 to 7.30

Task item: What do you have for "Cn1cc(CNc2cc(NC3CCCCC3)nn3c(-c4ccc(C(=O)NC5CC5)cc4)cnc23)cn1" ?
Reply: 6.30 to 7.30

Task item: // same read-out, input: NC1CCCCC1Nc1cc(NCC2CCOCC2)c2ncc(-c3ccc(C(=O)NC4CC4)cc3)n2n1 (centres unmarked)
Reply: 5.00 to 6.00

Task item: Now the same for "O=C(NC1CC1)c1ccc(-c2cnc3c(NCC4CCOCC4)nc(C4=CCNCC4)cn23)cc1"
Reply: 5.00 to 6.00

Task item: # repeat for "CC(C)CNc1nc(-c2ccc(S(=O)(=O)N3CCCC3)cc2)cn2c(-c3ccc(C(=O)NC4CC4)cc3)cnc12"
Reply: 5.00 to 6.00

Task item: Then what about the molecule "CC(=O)N1CC=C(c2cn3c(-c4ccc(C(=O)NC5CC5)cc4)cnc3c(NCC3CCOCC3)n2)CC1" ?
Reply: 6.00 to 6.30

Task item: Another: "O=C(NC1CC1)c1ccc(-c2cnc3c(NCC(F)F)cc(NC4CCCCC4)nn23)cc1"
Reply: 6.30 to 7.30

Task item: # iterate: "N#Cc1ccc(-c2cn3c(-c4ccc(C(=O)NC5CC5)cc4)cnc3c(NCC(F)F)n2)cc1"
Reply: 6.30 to 7.30

Task item: Lookup "CC(C)CNc1nc(-c2cccc(C(=O)NCCCN3CCN(C)CC3)c2)cn2c(-c3ccc(C(=O)NC4CC4)cc3)cnc12"
Reply: 5.00 to 6.00

Task item: Now try "O=C(NC1CC1)c1ccc(-c2cnc3c(NCc4ccncc4)cc(NC4CCCCC4)nn23)cc1" .
Reply: 6.30 to 7.30

Task item: // query: O=C(NC1CC1)c1ccc(-c2cnc3c(NCC4CCOCC4)cc(NC4C5CC6CC(C5)CC4C6)nn23)cc1 (centres unmarked)
Reply: 6.30 to 7.30

Task item: Here is the next molecule: "CC(C)CNc1nc(-c2cccc(NC(=O)[C@@H](N)CO)c2)cn2c(-c3ccc(C(=O)NC4CC4)cc3)cnc12"
Reply: 5.00 to 6.00

Task item: Please answer likewise for "CC(C)CNc1nc(-c2ccc(OCCN3CCOCC3)cc2)cn2c(-c3ccc(C(=O)NC4CC4)cc3)cnc12"
Reply: 5.00 to 6.00

Task item: What do we get for "O=C(NC1CC1)c1ccc(-c2cnc3c(NCC4CCOCC4)cc(Nc4ncccc4O)nn23)cc1" ?
Reply: 5.00 to 6.00

Task item: Can you handle "N#Cc1ccc(-c2cn3c(-c4ccc(C(=O)NC5CC5)cc4)cnc3c(NC[C@H]3CC[C@H](C(=O)O)CC3)n2)cc1" next?
Reply: 5.00 to 6.00

====

Molecular target: UniProtKB P33981
Assay: TTK assay: screening of TTK kinase activity suppressing action using p38 MAPK peptide
Format: biochemical
Conditions: p38 MAPK peptide substrate; read-out: TTK IC50
# label = 1 if IC50 < 5 nM else -1

chemicalsmiles=Nc1cccc(Oc2cc(NCC3CCOCC3)c3ncc(-c4ccc(C(=O)NC5CC5)cc4)n3n2)c1 classification=1
chemicalsmiles=O=C(NC1CC1)c1ccc(-c2cnc3c(NCC4CCCC4)cc(NC4CCCCC4)nn23)cc1 classification=-1
chemicalsmiles=O=C(NC1CC1)c1ccc(-c2cnc3c(NCC4CCOCC4)cc(NCC4CCCCC4)nn23)cc1 classification=1
chemicalsmiles=O=C(NC1CC1)c1ccc(-c2cnc3c(NCC4CCOCC4)cc(Oc4cccc(F)c4O)nn23)cc1 classification=1

Continue with the compound presented below.
Task item: Say whether its IC50 is strictly beneath 5 nM. Entry: "CN(c1cc(NCC2CCOCC2)c2ncc(-c3ccc(C(=O)NC4CC4)cc3)n2n1)C1CCCC1"
Reply: 1

====

Listing of entries alongside the reported IC50.
Molecular target: TTK (Homo sapiens, UniProt P33981)
Sequence (P33981 whole entry): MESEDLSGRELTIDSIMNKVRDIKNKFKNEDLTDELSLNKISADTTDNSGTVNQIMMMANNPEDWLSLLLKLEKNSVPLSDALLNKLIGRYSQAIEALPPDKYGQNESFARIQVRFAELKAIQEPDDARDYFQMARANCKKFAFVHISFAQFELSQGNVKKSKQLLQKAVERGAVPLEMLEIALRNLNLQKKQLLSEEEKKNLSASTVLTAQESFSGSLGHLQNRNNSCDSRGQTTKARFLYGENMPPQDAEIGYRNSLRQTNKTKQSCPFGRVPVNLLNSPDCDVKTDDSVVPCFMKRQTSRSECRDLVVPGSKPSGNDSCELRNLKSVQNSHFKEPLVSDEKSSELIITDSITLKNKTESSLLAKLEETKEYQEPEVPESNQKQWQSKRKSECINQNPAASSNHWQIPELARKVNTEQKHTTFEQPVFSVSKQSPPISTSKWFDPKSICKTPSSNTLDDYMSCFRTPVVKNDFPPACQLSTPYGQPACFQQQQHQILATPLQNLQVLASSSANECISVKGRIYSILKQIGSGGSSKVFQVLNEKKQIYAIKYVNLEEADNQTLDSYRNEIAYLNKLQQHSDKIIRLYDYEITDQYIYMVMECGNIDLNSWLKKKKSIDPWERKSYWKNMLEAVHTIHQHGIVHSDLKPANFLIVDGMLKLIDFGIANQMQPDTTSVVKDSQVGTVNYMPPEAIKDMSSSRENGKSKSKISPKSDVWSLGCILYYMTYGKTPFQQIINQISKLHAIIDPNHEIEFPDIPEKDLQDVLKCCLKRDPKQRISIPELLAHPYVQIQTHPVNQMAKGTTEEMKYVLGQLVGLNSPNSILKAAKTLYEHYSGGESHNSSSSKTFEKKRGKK
Test: TTK assay: screening of TTK kinase activity suppressing action using p38 MAPK peptide
Format: biochemical
Settings: p38 MAPK peptide substrate; read-out: TTK IC50
Write down the value, and be sure its unit follows.

Recorded results for 2 compounds are shown here.
compound="CC(Nc1cc(NCC2CCOCC2)c2ncc(-c3ccc(C(=O)NC4CC4)cc3)n2n1)c1cccs1 (stereo not drawn)" experimentaltarget="TTK (Homo sapiens, UniProt P33981)" measuredquantity=IC50 testvalue="7.5 nM"
compound="N#Cc1ccc(-c2cn3c(-c4ccc(C(=O)NC5CC5)cc4)cnc3c(NCC3COCCO3)n2)cc1 (stereo not drawn)" experimentaltarget="TTK (Homo sapiens, UniProt P33981)" measuredquantity=IC50 testvalue="16.8 nM"

Lab note: next compound to report on.
Task item: Quick one: IC50 of "O=C(NC1CC1)c1ccc(-c2cnc3c(NCc4ccc(F)cc4)cc(NC4CCCCC4)nn23)cc1" ?
Reply: 6.6 nM

====

Tested on: A549
Assay: A549 assay: screening of cancer cell growth inhibiting compound
Type: cell-based
Conditions: Homo sapiens, 72 h; A549 cells, three days, WST-8; read-out: A549 IC50
Below: a set of entries, each annotated with reported IC50.

# count of solved cases: 4
chemicalsmiles=CC(C)CNc1nc(-c2ccc(S(=O)(=O)C(C)C)cc2)cn2c(-c3ccc(C(=O)NC4CC4)cc3)cnc12 measuredquantity=IC50 testvalue="0.5 to 1 µM"
chemicalsmiles=O=C(NC1CC1)c1ccc(-c2cnc3c(NC[C@H]4CC[C@H](O)CC4)cc(NC4CCCCC4)nn23)cc1 measuredquantity=IC50 testvalue="0.05 to 0.5 µM"
chemicalsmiles=COCC(=O)Nc1cccc(-c2cn3c(-c4ccc(C(=O)NC5CC5)cc4)cnc3c(NCC(C)C)n2)c1 measuredquantity=IC50 testvalue="0.5 to 1 µM"
chemicalsmiles=CC(C)CNc1nc(-c2cccc(NC3CCOCC3)c2)cn2c(-c3ccc(C(=O)NC4CC4)cc3)cnc12 measuredquantity=IC50 testvalue="0.5 to 1 µM"

Now examine the next entry.
Task item: I am curious: what IC50 value has been reported for "CCCNc1cc(NCC2CCOCC2)c2ncc(-c3ccc(C(=O)NC4CC4)cc3)n2n1" ?
Reply: 0.05 to 0.5 µM
